Target: rat TRPV2 (rTRPV2) (Rattus norvegicus, UniProt Q9WUD2)
Sequence (Q9WUD2 1-761): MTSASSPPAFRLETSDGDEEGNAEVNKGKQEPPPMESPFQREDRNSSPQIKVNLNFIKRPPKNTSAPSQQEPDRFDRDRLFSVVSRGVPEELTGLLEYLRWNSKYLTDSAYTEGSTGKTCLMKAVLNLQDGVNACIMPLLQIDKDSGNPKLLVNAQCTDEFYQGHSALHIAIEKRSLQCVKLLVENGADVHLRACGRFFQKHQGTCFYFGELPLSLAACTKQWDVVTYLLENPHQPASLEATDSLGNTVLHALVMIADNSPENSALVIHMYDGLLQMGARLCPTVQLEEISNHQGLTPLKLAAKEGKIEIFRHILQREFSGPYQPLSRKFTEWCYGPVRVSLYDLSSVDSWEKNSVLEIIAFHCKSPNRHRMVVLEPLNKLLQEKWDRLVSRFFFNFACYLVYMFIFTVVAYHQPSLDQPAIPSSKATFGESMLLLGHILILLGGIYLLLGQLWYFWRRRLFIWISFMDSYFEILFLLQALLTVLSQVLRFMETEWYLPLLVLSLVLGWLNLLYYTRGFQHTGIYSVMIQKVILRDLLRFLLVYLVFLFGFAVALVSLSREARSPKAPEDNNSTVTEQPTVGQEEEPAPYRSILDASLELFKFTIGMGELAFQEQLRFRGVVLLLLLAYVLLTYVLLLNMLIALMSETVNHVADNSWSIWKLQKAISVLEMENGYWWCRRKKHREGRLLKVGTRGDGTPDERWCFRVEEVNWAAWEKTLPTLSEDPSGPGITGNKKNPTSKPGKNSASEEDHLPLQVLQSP
Assay: Whole-cell patch clamp of rat TRPV2 expressed in HEK-293T cells
Details: read-out: Inhibition KD, app
Measured Endpoint: Kd (µM)
Write down the numeric answer in µM and omit the unit.

Tell me its Kd on rat TRPV2 (rTRPV2) (Rattus norvegicus, UniProt Q9WUD2): CC(C)=CCCC(C)=CC=O 534

* * *

target: rat TRPV1 (rTRPV1) (Rattus norvegicus, UniProt O35433); test: Whole-cell patch clamp of rat TRPV1 expressed in HEK-293T cells; format: cell-based; conditions: citral block of pH5-evoked current; read-out: Inhibition KD, app
Sequence (O35433 whole entry): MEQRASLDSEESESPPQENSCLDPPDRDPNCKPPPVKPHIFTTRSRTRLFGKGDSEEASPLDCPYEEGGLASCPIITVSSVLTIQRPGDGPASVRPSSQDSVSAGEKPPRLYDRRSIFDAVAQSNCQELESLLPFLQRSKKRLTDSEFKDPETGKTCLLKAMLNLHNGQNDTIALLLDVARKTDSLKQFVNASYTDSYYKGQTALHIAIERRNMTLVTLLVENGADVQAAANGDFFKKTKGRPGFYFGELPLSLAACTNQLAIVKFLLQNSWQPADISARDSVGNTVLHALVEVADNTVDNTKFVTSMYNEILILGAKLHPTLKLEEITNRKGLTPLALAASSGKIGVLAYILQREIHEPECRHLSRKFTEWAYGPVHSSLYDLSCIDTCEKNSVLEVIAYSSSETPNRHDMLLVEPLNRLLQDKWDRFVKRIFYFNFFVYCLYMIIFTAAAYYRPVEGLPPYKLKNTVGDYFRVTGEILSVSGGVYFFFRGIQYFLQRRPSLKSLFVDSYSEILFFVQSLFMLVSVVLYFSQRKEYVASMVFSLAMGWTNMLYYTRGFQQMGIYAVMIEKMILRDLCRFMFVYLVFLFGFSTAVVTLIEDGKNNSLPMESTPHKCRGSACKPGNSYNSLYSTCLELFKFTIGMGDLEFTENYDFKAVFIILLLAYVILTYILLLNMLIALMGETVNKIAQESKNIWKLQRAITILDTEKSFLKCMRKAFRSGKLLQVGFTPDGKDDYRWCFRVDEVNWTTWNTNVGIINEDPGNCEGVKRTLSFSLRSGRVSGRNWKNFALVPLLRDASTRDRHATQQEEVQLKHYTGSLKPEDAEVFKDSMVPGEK
Measured Endpoint: Kd (µM)
Give just the number in µM; leave the unit off.

In one line, give reported Kd of the entry CC(C)=CCCC(C)=CC=O [citral, 3,7-dimethyl-2,6-octadienal] . 187

* * *

target: rat TRPM8 (rTRPM8) (Rattus norvegicus); assay: Whole-cell patch clamp of rat TRPM8 expressed in HEK-293T cells; format: cell-based; settings: citral activation, nominal external calcium; read-out: Activation KD, app
Measured Endpoint: Kd (µM)
Answer format: numeric, µM implied, no suffix.

Return reported Kd. Input molecule: CC(C)=CCCC(C)=CC=O 33.5

* * *

Target: rat TRPA1 (rTRPA1) (Rattus norvegicus)
Sequence (Q6RI86 whole entry): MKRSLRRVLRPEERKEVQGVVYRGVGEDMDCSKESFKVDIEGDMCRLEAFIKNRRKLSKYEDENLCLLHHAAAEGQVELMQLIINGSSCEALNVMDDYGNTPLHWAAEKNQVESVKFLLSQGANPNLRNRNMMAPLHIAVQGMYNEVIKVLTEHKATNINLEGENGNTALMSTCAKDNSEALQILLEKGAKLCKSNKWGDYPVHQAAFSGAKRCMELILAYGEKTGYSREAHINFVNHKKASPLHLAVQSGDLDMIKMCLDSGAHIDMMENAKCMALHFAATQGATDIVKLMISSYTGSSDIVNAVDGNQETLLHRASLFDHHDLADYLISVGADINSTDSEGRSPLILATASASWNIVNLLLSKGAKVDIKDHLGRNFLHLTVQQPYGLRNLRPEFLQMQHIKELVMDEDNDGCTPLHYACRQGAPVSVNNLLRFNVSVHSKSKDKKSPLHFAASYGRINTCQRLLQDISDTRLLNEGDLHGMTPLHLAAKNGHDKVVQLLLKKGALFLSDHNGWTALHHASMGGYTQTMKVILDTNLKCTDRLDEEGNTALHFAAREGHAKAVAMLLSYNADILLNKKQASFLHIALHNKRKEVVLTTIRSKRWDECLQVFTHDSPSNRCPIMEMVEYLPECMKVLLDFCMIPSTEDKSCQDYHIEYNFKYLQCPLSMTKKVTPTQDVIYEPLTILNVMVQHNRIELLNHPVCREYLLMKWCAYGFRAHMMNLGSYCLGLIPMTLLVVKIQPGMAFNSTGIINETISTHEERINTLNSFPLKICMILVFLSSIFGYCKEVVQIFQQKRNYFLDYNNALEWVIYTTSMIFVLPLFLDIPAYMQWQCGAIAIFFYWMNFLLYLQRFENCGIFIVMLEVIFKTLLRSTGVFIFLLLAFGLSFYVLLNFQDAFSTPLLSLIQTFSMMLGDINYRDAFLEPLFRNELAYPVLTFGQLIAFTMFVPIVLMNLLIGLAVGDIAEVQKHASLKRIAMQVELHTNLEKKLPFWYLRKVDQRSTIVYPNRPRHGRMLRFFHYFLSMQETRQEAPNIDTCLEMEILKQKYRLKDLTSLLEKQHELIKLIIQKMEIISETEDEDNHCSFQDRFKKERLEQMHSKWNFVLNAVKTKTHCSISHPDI
Assay: Whole-cell patch clamp of rat TRPA1 expressed in HEK-293T cells
Details: read-out: Inhibition KD, app
Procedure: Transformed human embryonic kidney-293 (HEK-293T) cells were grown in Dulbecco's modified Eagle's medium (DMEM)+F-12 supplemented with 10% fetal calf serum, and 1% penicillin/streptomycin in 5% CO2 at 37°C. […] Recordings were obtained using an Axopatch 200B amplifier, Digidata 1322A analog-to-digital converter, and pClamp 8.01 software (Molecular Devices, Union City, CA). […] Cell capacitance was measured for each cell, and access resistance compensated to ∼80%. […]
Measured Endpoint: pKd
By convention, pKd is the negative base-10 log of a molar concentration.

Report pKd, nothing else, for this compound: CC(C)=CCCC(C)=CC=O [citral, 3,7-dimethyl-2,6-octadienal] 3.60

* * *

target: mouse TRPV4 (mTRPV4) (Mus musculus, UniProt Q9EPK8); test: Whole-cell patch clamp of mouse TRPV4 expressed in HEK-293T cells; settings: read-out: Inhibition KD, app
Sequence (Q9EPK8 whole entry): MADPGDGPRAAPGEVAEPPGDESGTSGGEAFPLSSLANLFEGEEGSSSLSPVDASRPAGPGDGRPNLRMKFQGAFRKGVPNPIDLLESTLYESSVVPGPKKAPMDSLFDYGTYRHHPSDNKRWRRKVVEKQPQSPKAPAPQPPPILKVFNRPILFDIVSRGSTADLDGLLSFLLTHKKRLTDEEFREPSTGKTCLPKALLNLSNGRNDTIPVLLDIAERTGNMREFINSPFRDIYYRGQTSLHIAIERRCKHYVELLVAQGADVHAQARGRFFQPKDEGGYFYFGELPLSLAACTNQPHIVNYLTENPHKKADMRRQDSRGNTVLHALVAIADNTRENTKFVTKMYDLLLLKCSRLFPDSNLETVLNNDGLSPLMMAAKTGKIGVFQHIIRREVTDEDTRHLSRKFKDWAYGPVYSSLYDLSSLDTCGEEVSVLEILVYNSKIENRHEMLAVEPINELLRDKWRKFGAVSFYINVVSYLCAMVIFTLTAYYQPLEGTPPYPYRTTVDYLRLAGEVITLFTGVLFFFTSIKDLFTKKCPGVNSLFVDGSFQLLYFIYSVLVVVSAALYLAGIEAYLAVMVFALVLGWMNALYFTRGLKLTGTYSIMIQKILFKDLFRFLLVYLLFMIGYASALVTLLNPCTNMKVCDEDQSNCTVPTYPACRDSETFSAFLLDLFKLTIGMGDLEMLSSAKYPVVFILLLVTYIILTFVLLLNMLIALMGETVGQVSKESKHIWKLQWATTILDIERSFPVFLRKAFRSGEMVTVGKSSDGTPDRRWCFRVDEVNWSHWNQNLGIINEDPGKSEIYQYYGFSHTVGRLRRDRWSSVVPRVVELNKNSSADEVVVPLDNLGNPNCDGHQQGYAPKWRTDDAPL
Measured Endpoint: Kd (µM)
Quick reminder: number only, in µM, skip the unit.

Name the value of Kd reported for CC(C)=CCCC(C)=CC=O when tested on mouse TRPV4 (mTRPV4) (Mus musculus, UniProt Q9EPK8). 32

* * *

biological target: rat TRPM8 (rTRPM8) (Rattus norvegicus); experiment: Whole-cell patch clamp of rat TRPM8 expressed in HEK-293T cells; format: cell-based; conditions: citral block of menthol (1 mM)-evoked current, −40 mV; read-out: Inhibition KD, app
Measured Endpoint: pKd
Worth noting: pKd values are minus log10 of concentrations stated in mol/L.

Please supply the value of reported pKd for the item CC(C)=CCCC(C)=CC=O 3.62

* * *

target: rat TRPV1 (rTRPV1) (Rattus norvegicus); experiment: Whole-cell patch clamp of rat TRPV1 expressed in HEK-293T cells; type: cell-based; conditions: citral activation, −40 mV, nominal external calcium; read-out: Activation KD, app
Measured Endpoint: Kd

Specify measured Kd for CC(C)=CCCC(C)=CC=O . 465 µM

* * *

Molecular target: rat TRPM8 (rTRPM8) (Rattus norvegicus, UniProt Q8R455)
Sequence (Q8R455 whole entry): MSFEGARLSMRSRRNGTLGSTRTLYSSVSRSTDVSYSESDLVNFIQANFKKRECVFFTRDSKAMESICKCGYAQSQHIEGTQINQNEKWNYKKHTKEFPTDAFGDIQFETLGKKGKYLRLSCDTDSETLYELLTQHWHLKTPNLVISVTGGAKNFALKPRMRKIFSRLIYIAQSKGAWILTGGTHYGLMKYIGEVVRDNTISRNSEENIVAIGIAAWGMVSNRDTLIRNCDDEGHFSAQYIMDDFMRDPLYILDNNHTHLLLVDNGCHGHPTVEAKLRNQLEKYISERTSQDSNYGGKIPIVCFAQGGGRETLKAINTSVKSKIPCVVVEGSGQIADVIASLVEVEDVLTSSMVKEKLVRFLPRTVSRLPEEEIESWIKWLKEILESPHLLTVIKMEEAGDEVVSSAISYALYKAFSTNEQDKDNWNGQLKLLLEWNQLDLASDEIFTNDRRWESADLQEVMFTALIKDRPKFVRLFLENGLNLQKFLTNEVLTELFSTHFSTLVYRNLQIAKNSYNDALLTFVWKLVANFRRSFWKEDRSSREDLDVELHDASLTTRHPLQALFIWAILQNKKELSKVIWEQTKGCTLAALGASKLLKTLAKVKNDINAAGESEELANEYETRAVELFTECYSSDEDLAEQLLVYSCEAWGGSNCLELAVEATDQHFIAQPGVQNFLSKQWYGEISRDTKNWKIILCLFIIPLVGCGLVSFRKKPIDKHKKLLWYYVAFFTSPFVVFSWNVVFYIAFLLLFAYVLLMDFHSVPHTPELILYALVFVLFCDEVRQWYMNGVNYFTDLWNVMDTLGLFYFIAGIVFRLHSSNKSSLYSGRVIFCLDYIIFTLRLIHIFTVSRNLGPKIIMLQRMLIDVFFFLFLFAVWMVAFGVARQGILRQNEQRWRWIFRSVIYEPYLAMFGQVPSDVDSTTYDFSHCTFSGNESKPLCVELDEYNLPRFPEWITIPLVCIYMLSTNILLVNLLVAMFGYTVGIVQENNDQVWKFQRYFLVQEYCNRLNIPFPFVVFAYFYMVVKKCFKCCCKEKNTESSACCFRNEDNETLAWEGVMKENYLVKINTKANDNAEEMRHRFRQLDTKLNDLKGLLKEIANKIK
Experiment: Whole-cell patch clamp of rat TRPM8 expressed in HEK-293T cells
Format: cell-based
Conditions: citral block of menthol (1 mM)-evoked current, +40 mV; read-out: Inhibition KD, app
Protocol: Transformed human embryonic kidney-293 (HEK-293T) cells were grown in Dulbecco's modified Eagle's medium (DMEM)+F-12 supplemented with 10% fetal calf serum, and 1% penicillin/streptomycin in 5% CO2 at 37°C. […] Recordings were obtained using an Axopatch 200B amplifier, Digidata 1322A analog-to-digital converter, and pClamp 8.01 software (Molecular Devices, Union City, CA). […] Cell capacitance was measured for each cell, and access resistance compensated to ∼80%. […]
Measured Endpoint: Kd (µM)
Please give a number only; it is taken to be in µM.

Print rat TRPM8 (rTRPM8) (Rattus norvegicus, UniProt Q8R455) Kd for CC(C)=CCCC(C)=CC=O . 188

* * *

target: mouse TRPV3 (mTRPV3) (Mus musculus); test: Whole-cell patch clamp of mouse TRPV3 expressed in HEK-293T cells; format: cell-based; details: citral block of current evoked by 700 µM 2-aminoethyldiphenyl borate; read-out: Inhibition KD, app
Sequence (Q8K424 whole entry): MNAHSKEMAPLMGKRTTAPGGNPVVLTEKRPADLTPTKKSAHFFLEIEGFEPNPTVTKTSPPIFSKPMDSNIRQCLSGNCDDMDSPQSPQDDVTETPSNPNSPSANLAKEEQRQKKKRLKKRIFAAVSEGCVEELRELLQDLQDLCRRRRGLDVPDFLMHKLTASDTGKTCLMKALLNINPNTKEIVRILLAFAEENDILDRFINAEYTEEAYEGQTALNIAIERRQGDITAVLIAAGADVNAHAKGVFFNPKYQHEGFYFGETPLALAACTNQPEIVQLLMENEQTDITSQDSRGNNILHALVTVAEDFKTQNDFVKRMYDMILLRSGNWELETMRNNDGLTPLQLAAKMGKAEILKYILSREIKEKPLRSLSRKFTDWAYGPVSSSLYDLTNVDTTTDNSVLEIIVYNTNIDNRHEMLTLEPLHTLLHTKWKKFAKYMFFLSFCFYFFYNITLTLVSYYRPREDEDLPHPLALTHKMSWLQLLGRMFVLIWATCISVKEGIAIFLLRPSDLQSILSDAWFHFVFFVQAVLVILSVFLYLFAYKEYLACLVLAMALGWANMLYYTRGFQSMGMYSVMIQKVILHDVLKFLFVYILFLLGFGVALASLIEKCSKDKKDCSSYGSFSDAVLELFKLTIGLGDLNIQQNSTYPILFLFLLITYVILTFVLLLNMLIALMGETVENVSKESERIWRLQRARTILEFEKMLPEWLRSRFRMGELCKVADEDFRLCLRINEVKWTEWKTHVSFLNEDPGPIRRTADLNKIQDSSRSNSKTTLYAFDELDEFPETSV
Measured Endpoint: pKd
To interpret pKd, take it as minus log10 of a concentration measured in moles per litre.

Indicate its recorded pKd; the compound in question is CC(C)=CCCC(C)=CC=O [citral, 3,7-dimethyl-2,6-octadienal] 3.33

* * *

target: rat TRPV1 (rTRPV1) (Rattus norvegicus); test: Whole-cell patch clamp of rat TRPV1 expressed in HEK-293T cells; format: cell-based; conditions: citral activation, +40 mV, nominal external calcium; read-out: Activation KD, app
Measured Endpoint: pKd
In plain terms, pKd is the concentration in mol/L turned into minus its base-10 logarithm.

Using the record for CC(C)=CCCC(C)=CC=O [citral, 3,7-dimethyl-2,6-octadienal] , state its measured pKd. 3.38

Origin of measurements: paper PMC2346451
